study system: human kinase Mps-1 (Homo sapiens)
Construct: N-terminally GST-tagged human full length recombinant Mps-1 kinase; GST (N)
Sequence (P33981 whole entry): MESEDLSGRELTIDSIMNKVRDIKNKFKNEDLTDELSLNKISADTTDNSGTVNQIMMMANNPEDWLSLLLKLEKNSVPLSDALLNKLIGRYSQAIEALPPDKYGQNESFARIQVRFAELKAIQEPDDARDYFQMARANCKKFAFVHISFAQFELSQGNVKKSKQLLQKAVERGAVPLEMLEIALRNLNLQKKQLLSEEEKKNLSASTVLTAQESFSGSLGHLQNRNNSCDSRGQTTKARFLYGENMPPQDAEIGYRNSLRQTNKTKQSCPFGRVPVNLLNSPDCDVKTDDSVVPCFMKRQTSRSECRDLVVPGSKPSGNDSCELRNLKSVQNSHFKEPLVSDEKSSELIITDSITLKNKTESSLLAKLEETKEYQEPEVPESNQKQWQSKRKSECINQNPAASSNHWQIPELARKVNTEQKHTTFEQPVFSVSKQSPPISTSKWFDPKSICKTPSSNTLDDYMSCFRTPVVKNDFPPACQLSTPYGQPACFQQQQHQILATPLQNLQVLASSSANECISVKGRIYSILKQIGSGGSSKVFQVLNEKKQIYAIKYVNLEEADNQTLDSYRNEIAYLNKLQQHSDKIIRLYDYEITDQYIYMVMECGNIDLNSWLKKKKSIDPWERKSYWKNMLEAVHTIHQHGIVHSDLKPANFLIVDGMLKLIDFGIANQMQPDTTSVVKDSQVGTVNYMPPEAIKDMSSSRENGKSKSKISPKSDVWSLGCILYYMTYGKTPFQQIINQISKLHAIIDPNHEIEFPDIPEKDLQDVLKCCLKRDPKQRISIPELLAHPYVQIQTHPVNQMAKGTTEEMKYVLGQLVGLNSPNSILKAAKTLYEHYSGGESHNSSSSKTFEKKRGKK
measurement description: Mps-1 kinase assay (HTRF)
Protocol: The human kinase Mps-1 phosphorylates a biotinylated substrate peptide. Detection of the phosphorylated product is achieved by homogenous time-resolved fluorescence resonance energy transfer (HTRF) from Europium-labelled anti-phospho-Serine/Threonine antibody as donor to streptavidin labelled with cross-linked allophycocyanin (SA-XLent) as acceptor. Compounds are tested for their inhibition of the kinase activity. […]
pIC50: −log10 of the molar value.
Note to self: class = bucket of pIC50, per bucket 1: < 7; bucket 2: ≥ 7 and < 8; bucket 3: ≥ 8

{"molecule": "CCOC(=O)c1cccc(-c2ccc3nc(Nc4ccccc4C#N)nn3c2)c1 [Example 9.1]", "class assignment": "bucket 1"}
{"molecule": "C[C@@H](NC(=O)c1cccc(-c2ccc3nc(Nc4ccccc4C#N)nn3c2)c1)C(C)(C)C [Example 11.039]", "class assignment": "bucket 3"}
{"molecule": "CC(C)(C)CNC(=O)c1cccc(-c2ccc3nc(Nc4ccc(C(=O)NCCO)cc4OCC(F)(F)F)nn3c2)c1 [Example 11.091]", "class assignment": "bucket 3"}
{"molecule": "CNCCN(C)C(=O)c1ccc(Nc2nc3ccc(-c4ccc(C(=O)NCC(F)(F)F)cc4)cn3n2)c(OC)c1 [Example 11.007]", "class assignment": "bucket 3"}
{"molecule": "COc1cc(C(=O)N(C)CCN(C)C(C)=O)ccc1Nc1nc2ccc(-c3ccc(C(=O)NCC(F)(F)F)cc3)cn2n1 [Example 11.020]", "class assignment": "bucket 3"}
{"molecule": "N#Cc1ccccc1Nc1nc2ccc(-c3ccc(C(=O)O)cc3)cn2n1 [Example 11.009]", "class assignment": "bucket 1"}
{"molecule": "N#Cc1ccccc1Nc1nc2ccc(-c3cccc(C(=O)NCC(F)(F)C(F)(F)F)c3F)cn2n1 [Example 11.063]", "class assignment": "bucket 2"}
{"molecule": "O=C(NCCO)c1ccc(Nc2nc3ccc(-c4ccc(C(=O)NCC(F)(F)F)cc4)cn3n2)c(OCC(F)(F)F)c1 [Example 11.037]", "class assignment": "bucket 3"}

Sort N#Cc1ccccc1Nc1nc2ccc(-c3cccc(C(=O)NCC(F)(F)F)c3)cn2n1 [Example 11.044] into one of the categories. bucket 3

Please give the result for O=C(NCC(F)(F)F)c1ccc(-c2ccc3nc(Nc4cccnc4OCC(F)(F)F)nn3c2)cc1 [Example 11.001] too. bucket 3

Please give the result for CC(C)[C@H](C)NC(=O)c1cccc(-c2ccc3nc(Nc4ccccc4C#N)nn3c2)c1 [Example 11.051] too. bucket 3

Please give the result for N#Cc1ccccc1Nc1nc2ccc(-c3cccc(F)c3)cn2n1 [Example 3.12] too. bucket 1

Please give the result for N#Cc1ccccc1Nc1nc2ccc(-c3cccc(C(=O)NCCF)c3F)cn2n1 [Example 11.072] too. bucket 2

Please give the result for CC(C)(CO)NC(=O)c1cccc(-c2ccc3nc(Nc4ccccc4C#N)nn3c2)c1 [Example 11.046] too. bucket 3

Please give the result for CNC(=O)c1ccc(-c2ccc3nc(Nc4ccccc4C#N)nn3c2)cc1 [Example 3.10] too. bucket 2

Please give the result for COc1cccnc1Nc1nc2ccc(-c3cccc(NC(C)=O)c3)cn2n1 [Example 2.11] too. bucket 1

Please give the result for N#Cc1ccccc1Nc1nc2ccc(-c3cccc(C(=O)NCC(F)F)c3F)cn2n1 [Example 11.069] too. bucket 2

Please give the result for COc1cc(C(=O)NCC(F)(F)F)ccc1Nc1nc2ccc(-c3cccc(C(=O)NCC(C)(C)C)c3)cn2n1 [Example 11.084] too. bucket 3

Please give the result for CCOc1cc(C(=O)NC(C)(C)C)ccc1Nc1nc2ccc(-c3cccc(C(=O)NCC(C)(C)C)c3)cn2n1 [Example 11.089] too. bucket 3

Please give the result for CC(C)(C)OC(=O)c1ccc(-c2ccc3nc(Nc4ccccc4C#N)nn3c2)cc1 [Example 11.013] too. bucket 1

Please give the result for CCOC(=O)c1cc(F)cc(-c2ccc3nc(Nc4ccccc4C#N)nn3c2)c1 [Example 11.075] too. bucket 1

Please give the result for N#Cc1ccccc1Nc1nc2ccc(-c3ccccc3)cn2n1 [Example 3.1] too. bucket 1

Please give the result for CCNC(=O)c1ccc(Nc2nc3ccc(-c4cccc(C(=O)NCC(F)(F)F)c4)cn3n2)c(OCC)c1 [Example 11.088] too. bucket 3

Please give the result for COc1ccc(F)cc1Nc1nc2ccc(-c3cccc(NC(C)=O)c3)cn2n1 [Example 2.2] too. bucket 1

Please give the result for CCN(CC)C(=O)c1ccc(Nc2nc3ccc(-c4ccc(C(=O)NCC(C)(C)C)cc4)cn3n2)c(OC)c1 [Example 11.027] too. bucket 2

Please give the result for COc1ccc(Nc2nc3ccc(-c4cc(C)c(O)c(C)c4)cn3n2)c(OC)c1 [Example 1.2] too. bucket 1

Taken from patent US20130121994A1.
